Documented IC50 across a set of molecules
Target: Protein deacetylase HDAC6 (Homo sapiens)
Sequence (Q9UBN7 whole entry): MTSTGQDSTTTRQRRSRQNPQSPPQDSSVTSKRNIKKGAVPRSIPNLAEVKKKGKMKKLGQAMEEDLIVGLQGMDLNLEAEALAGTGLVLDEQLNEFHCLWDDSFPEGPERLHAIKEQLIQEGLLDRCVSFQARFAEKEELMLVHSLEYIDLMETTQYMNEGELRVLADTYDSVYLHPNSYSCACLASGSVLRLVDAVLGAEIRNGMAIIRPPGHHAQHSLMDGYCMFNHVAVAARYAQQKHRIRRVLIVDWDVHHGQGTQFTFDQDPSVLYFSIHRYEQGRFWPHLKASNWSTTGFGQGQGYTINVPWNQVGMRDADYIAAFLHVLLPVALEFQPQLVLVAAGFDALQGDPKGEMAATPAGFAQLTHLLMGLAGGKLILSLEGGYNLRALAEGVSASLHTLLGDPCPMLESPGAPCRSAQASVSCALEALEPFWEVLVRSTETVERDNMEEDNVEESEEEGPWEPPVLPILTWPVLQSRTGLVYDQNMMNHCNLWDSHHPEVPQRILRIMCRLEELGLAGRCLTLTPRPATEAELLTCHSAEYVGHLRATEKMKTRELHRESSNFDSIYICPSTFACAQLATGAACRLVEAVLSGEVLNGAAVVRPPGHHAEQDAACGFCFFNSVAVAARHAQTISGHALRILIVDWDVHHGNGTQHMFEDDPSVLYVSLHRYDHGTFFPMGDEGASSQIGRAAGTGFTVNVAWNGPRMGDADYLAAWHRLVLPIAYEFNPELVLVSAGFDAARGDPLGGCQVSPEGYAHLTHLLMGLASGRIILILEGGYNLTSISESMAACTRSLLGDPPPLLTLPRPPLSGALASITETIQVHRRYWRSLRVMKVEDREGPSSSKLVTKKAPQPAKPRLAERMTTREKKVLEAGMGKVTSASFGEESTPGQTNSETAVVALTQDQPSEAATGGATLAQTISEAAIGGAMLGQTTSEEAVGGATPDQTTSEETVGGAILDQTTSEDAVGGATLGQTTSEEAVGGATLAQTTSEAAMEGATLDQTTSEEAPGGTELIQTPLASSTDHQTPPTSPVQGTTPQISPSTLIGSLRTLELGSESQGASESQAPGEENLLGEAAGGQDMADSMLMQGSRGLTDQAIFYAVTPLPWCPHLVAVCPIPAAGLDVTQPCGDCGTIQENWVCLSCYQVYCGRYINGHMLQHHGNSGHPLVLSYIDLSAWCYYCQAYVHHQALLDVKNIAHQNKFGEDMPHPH
Assay: Inhibition of recombinant HDAC6 expressed in HEK293 cells
TEST READOUT: IC50

> print(dat)
                                smiles.data  test.readout  value.reported
1      CCSC(=S)SCC(=O)c1ccc(NS(C)(=O)=O)cc1          IC50         1090 nM
2  CCSC(=S)SCC(=O)c1cccc(NS(=O)(=O)c2ccccc2)c1          IC50          104 nM
3  CCSC(=S)SCC(=O)c1ccc(NC(=O)c2cnc3ccccc3c2)cc1          IC50          119 nM
4  CCSC(=S)SCC(=O)c1cccc(S(=O)(=O)Nc2ccc(OC)cc2)c1          IC50          519 nM
